Cited source for all entries: the EternaBench riboswitch data

Exercise: for every item that follows, state its recorded apparent Kd.
- System: MS2 coat protein
- assay_text: apparent Kd, MS2 coat protein; higher = weaker binding; RNA-MaP array; tryptophan 2.4 mM where present
- test_settings: designed as: OFF switch for tryptophan; no ligand
Provide the reading as a plain figure in nM.

Given "AGAUUCGACACGGCCGCCACUUUCAGUGGCUGGUCACAUGGUGCACAUGAGGAUCACCCAUGUGGAAGGACCGGGUGUUGAGUCU" , state its recorded apparent Kd. 28

Given "GGAGUAGGAAACUAUUCCAAUCCUCGUGAACGAGGACCGGUACGGCCGCCACUCGAUAAUUAAUAACAUGAGGAUCACCCAUGUA" , state its recorded apparent Kd. 83.7

Given "UUAGUAACGACGGCCGCCACUGAAUUUGAACAUGAGGAUCACCCAUGUAGAGAUCCUAGAAUAAACAGGACCGGGUCUGAUAAUG" , state its recorded apparent Kd. 95.7

Given "AAACAUGAGGCGGCCGCCACUGUAUGAACAUGAGGAUCACCCAUGUAUGUACCCAUGUGUGUACACAGGACCGGGCCAUGUGGAU" , state its recorded apparent Kd. 28.1

Given "GCUGGACUUUCGGCCGCCACUGAGAGAGUCGUGUGAACAUGAGGAUCACCCAUGUAAUAUAUAUACAGGACCGGGAGGGUUGUGC" , state its recorded apparent Kd. 11.8

Given "AACAUGAGGAUCACCCAUGUGUCCUCGAAACGAGGACCGGUACGGCCGCCACUCGAAUAAGGUGUUGACGAAAAGUCAGCACCAA" , state its recorded apparent Kd. 274

====

Exercise: for every item that follows, state its recorded apparent Kd.
- Tested on: MS2 coat protein
- assay_text: apparent Kd, MS2 coat protein; higher = weaker binding; RNA-MaP array
- test_settings: designed as: ON switch for flavin mononucleotide; no ligand
Provide the reading as a plain figure in nM.

Given "AUAAACUAACAUGAGGAUCACCCAUGUAUGGAGAAAAUACCUAGAAGGAGGAUAUUUACAACAUCCAAGGAUAUAGGAGCCUCA" , state its recorded apparent Kd. 68.1

Given "CGUCCCUAGCAGAAGGUUCUUUGGGCUGCAGUGAAAGGAUAUGCCAGCACAUGAGGAUCACCCAUGUCUGUCGGAUGCACCAGA" , state its recorded apparent Kd. 63.9

Given "GCGCGGCGUGAAGGAUAUGGUUCAGUACAUGAGGAUCACCCAUGUCAGACAGCAUCGGGGCCGUCCCAGAAGGUCACACGUUUU" , state its recorded apparent Kd. 9.14

Given "ACGAAAUCUUAAACUUACGCACAUGAGGAUCACCCAUGUCACUAGGAUAUUAAAACAAAACAAUGUAAGAAGGAGUGAGAAAAG" , state its recorded apparent Kd. 13.6

Given "AAGUUGAGCACAAAGGAUAUUUGUAAACAAACAUGAGGAUCACCCAUGUGAACAAUAGUACAUACAAAGAAGGUUGAGAUACAUGU" , state its recorded apparent Kd. 54.2

Given "GAACGGAGAGAAGGAUAUGGCAUAUUGCCUCACAUGAGGAUCACCCAUGUCAAGACAAAGCGAUCCCAGAAGGUCUCACAACAU" , state its recorded apparent Kd. 60.1

Given "CCAGGGCGAAACAUGAGGAUCACCCAUGUCCUAGCAACGAUGAGAAGGGUAAACACAAUGUCUUUACAGGAUAUCAACCAUACG" , state its recorded apparent Kd. 11.2

Given "UCUAGAUCAUCGUGACAUGAGGAUCACCCAUGUCUGCGGGCAAGAAGGUGGUCGUUGUCUAACACCAAGGAUAUUGAGGGAGGU" , state its recorded apparent Kd. 51.5

Given "AGCUCACAUGAGGAUCACCCAUGUCAAUUGUCAUCCUAUUGUAGAAGGCCGACACUGAUAUUAACGGAGGAUAUACGAGACAAU" , state its recorded apparent Kd. 15.2

Given "UUUAGACGGCAGAAGGCGGGCUCGCGCGGUGUACAUGAGGAUCACCCAUGUGUUUGCCAUCUACCCGAGGAUAUGCAGUGAUGG" , state its recorded apparent Kd. 39.4

Given "AGCGCCUUAUCAGGAUAUAUGCGCAUGAAGUAGGUACACAUGAGGAUCACCCAUGUCCGGGGAACAUAGAAGGGAUAGAAGUAG" , state its recorded apparent Kd. 86.9

Given "GACCGUGUCAAUCAUCAUCAACAUGAGGAUCACCCAUGUACCAAGGAUAUCUCGCACUACAAGUCAGAGAAGGUGGGUUUACUC" , state its recorded apparent Kd. 241

Given "CGCCGUACGUCAGGAUAUCACAAUUGGAUCCAUCACAUGAGGAUCACCCAUGUUUACAAGUAGAAUGAGAAGGGACAAGGAUAA" , state its recorded apparent Kd. 49.3

Given "UUUAGACCUCAACAUGAGGAUCACCCAUGUAAAUCUCUAUCGAGAAGGAAGGAAGGAACCUUGUCUUAGGAUAUCGACAAUUUC" , state its recorded apparent Kd. 101

Given "GACCGGACAUCCUAGGAUAUUUAUACUGAUACAUGAGGAUCACCCAUGUUUGGAAACAUCGUACGAAAGAAGGAGGAGACCUCUGA" , state its recorded apparent Kd. 11.7

Given "UGGAUUCGACAAGGAUAUGGUAGUCAUAGCACAUGAGGAUCACCCAUGUUAAAGCAAAACAAAGUCCAGAAGGUGUAAGUACGG" , state its recorded apparent Kd. 11.7

Given "GCUUGACAUGAGGAUCACCCAUGUAAAUGAGAGACAGGAUAUACGAGACACGUAGGGUAGGUAGAAGGGUCGACUG" , state its recorded apparent Kd. 15.1

Given "CGAAUCAACCGGCAGGAUAUGAAAACUAAAACAUGAGGAUCACCCAUGUCGGACAAGAACAUGAUACAGAAGGGCCACGUAACAAG" , state its recorded apparent Kd. 95.5

Given "GACAGAAAGUCAGGAUAUGAACGGUCAUGACAUGAGGAUCACCCAUGUUUCUUGUGCACCCUGCGUCAGAAGGGACUAGUGAGG" , state its recorded apparent Kd. 19.3

Given "CUAAAACAUGAGGAUCACCCAUGUCAUUUAACUCAAGGAUAUAGAUCUGAGAGCUCAGCGCUAGAAGGUGAUUUUG" , state its recorded apparent Kd. 55.1

Given "GAAAUCAGAGAGAAGGGUUUACAUCCGACAUGAGGAUCACCCAUGUAGUAAAACUACGACAACUAACAGGAUAUCACUGGCACC" , state its recorded apparent Kd. 208
